- Read-out: sulfotransferase 2A1 (SULT2A1), SULT2A1 (gene 6822)
- Assay Method Text: LTEA_HepaRG_SULT2A1: Life Technologies and Expression Analysis (LTEA) Assay for sulfotransferase 2A1 (SULT2A1) using HepaRG (AID 2283531)
- Run Conditions: mRNA level, 48 h; actives raise or lower the signal
Activity calls are given as the source filed them. How the source made its calls: active means hit-call score of the fitted dose curve at least 0.9, where 1 is the maximum; inactive means score below 0.9.
Permitted responses: active, inactive

Example entries and their recorded answers appear below.
CCCCNC(=O)OCC#CI; active
CCNc1nc(Cl)nc(NC(C)C)n1; inactive
O=C(Nc1ccccc1)Nc1ccnc(Cl)c1; active
CCOC(=O)C(Cl)Cc1cc(-n2nc(C)n(C(F)F)c2=O)c(F)cc1Cl (configuration not stated); inactive

## Task Hi, do you know how COC(=O)C(C)Oc1ccc(Oc2ccc(Cl)cc2Cl)cc1 (configuration not stated) came out in this test?
## Result inactive
